system: GAL4-mPPARγ (Mus musculus, UniProt P37238)
Construct: expressed in transfected cells; host or cells: COS7
Sequence (P37238 with tags, fused parts or gaps limits assumed): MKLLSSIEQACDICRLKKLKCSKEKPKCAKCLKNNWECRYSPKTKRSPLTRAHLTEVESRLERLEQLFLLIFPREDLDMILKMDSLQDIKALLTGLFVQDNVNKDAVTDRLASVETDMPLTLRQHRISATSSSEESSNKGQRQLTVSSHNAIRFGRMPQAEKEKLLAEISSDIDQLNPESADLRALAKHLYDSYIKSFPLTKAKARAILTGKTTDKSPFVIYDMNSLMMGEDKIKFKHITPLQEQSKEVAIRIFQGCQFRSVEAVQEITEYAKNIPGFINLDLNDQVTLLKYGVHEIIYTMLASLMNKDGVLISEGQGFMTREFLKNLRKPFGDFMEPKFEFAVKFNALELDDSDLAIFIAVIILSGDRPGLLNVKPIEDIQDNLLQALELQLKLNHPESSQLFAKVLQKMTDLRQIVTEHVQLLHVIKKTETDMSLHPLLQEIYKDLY
assay_info: GAL4-mPPARγ activation, transient transfection luciferase reporter in COS7 cells
Assay type: cell-based
run_conditions: COS7, 100 μM through 0.137 μM
measured_attribute: Activation of GAL4-PPARγ (text)

Some solved cases for reference:
[[record]]
compound = "CCc1cccc(CC)c1N(COC)C(=O)CCl [Alachlor]"
measured_attribute = "Activation of GAL4-PPARγ (text)"
recorded_value = "did not activate PPARγ"

[[record]]
compound = "CCNc1nc(Cl)nc(NC(C)C)n1 [Atrazine]"
measured_attribute = "Activation of GAL4-PPARγ (text)"
recorded_value = "inactive"

[[record]]
compound = "CCCOC/C(=N\\c1ccc(Cl)cc1C(F)(F)F)n1ccnc1 [Triflumizole]"
measured_attribute = "Activation of GAL4-PPARγ (text)"
recorded_value = "activated GAL-PPARγ"

[[record]]
compound = "CCC(C)(NC(=O)c1cc(Cl)c(C)c(Cl)c1)C(=O)CCl (centres unmarked) [Zoxamide]"
measured_attribute = "Activation of GAL4-PPARγ (text)"
recorded_value = "activated GAL-PPARγ"

[[record]]
compound = "Oc1cc(Cl)ccc1Oc1ccc(Cl)cc1Cl [Triclosan]"
measured_attribute = "Activation of GAL4-PPARγ (text)"
recorded_value = "inactive"


Task item: Fill in the blank: the reported Activation of GAL4-PPARγ (text) of O=[N+]([O-])c1cc(C(F)(F)F)c(Cl)c([N+](=O)[O-])c1Nc1ncc(C(F)(F)F)cc1Cl [Fluazinam] is ____.
Reply: did not activate PPARγ

Task item: Fill in the blank: the reported Activation of GAL4-PPARγ (text) of CCC(C)(C)C(=O)OC1=C(c2ccc(Cl)cc2Cl)C(=O)OC12CCCCC2 [Spirodiclofen] is ____.
Reply: activated GAL-PPARγ

Task item: Fill in the blank: the reported Activation of GAL4-PPARγ (text) of [OH-].c1cc[c]([Sn+]([c]2ccccc2)[c]2ccccc2)cc1 [Triphenyltin] is ____.
Reply: activated GAL-PPARγ

Task item: Fill in the blank: the reported Activation of GAL4-PPARγ (text) of CCOCN(C(=O)CCl)c1c(C)cccc1CC [Acetochlor] is ____.
Reply: did not activate PPARγ

Values from paper PMC4977052
